// provenance: patent US20250136677A1

- Assay system: T1, wildtype feline IL-31 protein (Feline_IL31_wildtype) (feline); note: test concentration or dose not given here
- T1 chain: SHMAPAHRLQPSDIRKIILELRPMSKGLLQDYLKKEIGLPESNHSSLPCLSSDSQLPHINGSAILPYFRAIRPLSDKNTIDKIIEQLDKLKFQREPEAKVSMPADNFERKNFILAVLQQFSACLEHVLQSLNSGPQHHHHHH
- Assay name: cell-based or functional assay
Property name: % Inhibition Relative to Parent (pSTAT, FCWF-4 cells)

binder="A47 (antibody, V domains shown) VH: QVLLVQSGAEVRTPGASVKIFCKASGYSFTSYTIHWLRQAPAQGLEWMGNINPTSGYTANNQRFKDRLTLTADTSTNTAYMELSSLRSADTAMYYCARWGFKYDGEWSFDVWGAGTTVTVSS VL: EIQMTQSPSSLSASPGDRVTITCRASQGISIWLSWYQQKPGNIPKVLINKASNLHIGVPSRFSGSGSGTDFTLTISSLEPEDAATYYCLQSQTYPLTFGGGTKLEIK" recorded_measurement=18%
binder="A34 (antibody, V domains shown) VH: QVLLVQSGAEVRTPGASVKIFCKASGYSFTSYAIHWLRQAPAQGLEWMGNINPTSGYTENNQRFKDRLTLTADTSTNTAYMELSSLRSADTAMYYCARWGFKYDGEWSFDVWGAGTTVTVSS VL: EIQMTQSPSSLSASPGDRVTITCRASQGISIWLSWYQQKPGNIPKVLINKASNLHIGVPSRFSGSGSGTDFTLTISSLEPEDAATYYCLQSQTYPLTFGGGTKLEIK" recorded_measurement=0%
binder="A49 (antibody, V domains shown) VH: QVLLVQSGAEVRTPGASVKIFCKASGYSFTSYTIHWLRQAPAQGLEWMGNINPTSGYTENAQRFKDRLTLTADTSTNTAYMELSSLRSADTAMYYCARWGFKYDGEWSFDVWGAGTTVTVSS VL: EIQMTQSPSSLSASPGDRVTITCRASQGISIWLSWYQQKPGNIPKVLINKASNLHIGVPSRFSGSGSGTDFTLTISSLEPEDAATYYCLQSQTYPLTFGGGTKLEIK" recorded_measurement=46.6%
